Target Desc: T1, CD3 epsilon homodimer protein (UniProt P07766 23-126)
T1 construct: also called CD3 (CD3 epsilon)
T1 sequence (P07766 23-126): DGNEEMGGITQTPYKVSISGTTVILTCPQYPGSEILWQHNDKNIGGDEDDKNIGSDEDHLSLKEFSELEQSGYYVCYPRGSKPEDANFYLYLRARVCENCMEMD
Protocol Summary: SPR Biacore T200, CD3e homodimer on chip, vs unaltered GLS3000 antibody
Field: ratio of amounts bound (Z=Y/X). Provide a value for each of the binders that follow.
Please respond with just the number, no unit label.

Which ratio of amounts bound (Z=Y/X) value is on record for GLS3000 H34F (antibody, name in Kabat numbering, V domains shown, one-arm IgG as m2) VH: QVQLVESGGGVVQPGRSLRLSCAASGFTFSNAWMHWVRQAPGKGLEWVAQIKAKSNNYATYYAESVKGRFTISRDDSKNSLYLQMNSLKTEDTAVYYCRYVHYGAYYGVDAWGQGTTVTVSS VL: DIVMTQSPLSLPVTPGEPASISCRSSQSLVHSNRNTYLFWYQQKPGQAPRLLIYKVSNRFSGVPDRFSGSGSGTDFTLKISRVEAEDVGVYYCGQGTQVPYTFGQGTKLEIK ?
0.27

Item: GLS3000 R54E (antibody, name in Kabat numbering, V domains shown, one-arm IgG as m2) VH: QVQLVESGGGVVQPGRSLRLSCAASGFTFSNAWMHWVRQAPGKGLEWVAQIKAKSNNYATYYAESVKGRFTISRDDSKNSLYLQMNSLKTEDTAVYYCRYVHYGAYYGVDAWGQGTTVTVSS VL: DIVMTQSPLSLPVTPGEPASISCRSSQSLVHSNRNTYLHWYQQKPGQAPRLLIYKVSNEFSGVPDRFSGSGSGTDFTLKISRVEAEDVGVYYCGQGTQVPYTFGQGTKLEIK
0.58

Item: GLS3000 R54D (antibody, name in Kabat numbering, V domains shown, one-arm IgG as m2) VH: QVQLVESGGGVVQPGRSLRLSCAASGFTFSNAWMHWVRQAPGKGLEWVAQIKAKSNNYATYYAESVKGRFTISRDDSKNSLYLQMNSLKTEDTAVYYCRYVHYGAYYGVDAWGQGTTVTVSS VL: DIVMTQSPLSLPVTPGEPASISCRSSQSLVHSNRNTYLHWYQQKPGQAPRLLIYKVSNDFSGVPDRFSGSGSGTDFTLKISRVEAEDVGVYYCGQGTQVPYTFGQGTKLEIK
0.36
